read-out: Macrophage colony-stimulating factor (MCSF), CSF1 (gene 1435); test: BSK_LPS_MCSF: BioMAP Diversity Plus: LPS Assay for Macrophage colony-stimulating factor (MCSF) Biomarker Activity (AID 2283083); conditions: primary human HUVEC with PBMC; actives raise or lower the signal
Active and inactive are the calls of the source. The calls were made as follows: active = hit-call score of the fitted dose curve at least 0.9, where 1 is the maximum; inactive = score below 0.9.
Could you please pick one outcome from this set? yes (1) (active), no (0) (inactive)

I would be grateful if you could indicate the recorded call for `N#CN=C1SCCN1Cc1ccc(Cl)nc1` .
no (0)

I would be grateful if you could indicate the recorded call for `Nc1c(Cl)c(Cl)nc(C(=O)O)c1Cl` .
no (0)

I would be grateful if you could indicate the recorded call for CCCN(CC)CC1COC2(CCC(C(C)(C)C)CC2)O1 (configuration not stated) .
no (0)

I would be grateful if you could indicate the recorded call for `Cc1ccc(N=CN(C)C=Nc2ccc(C)cc2C)c(C)c1` .
yes (1)

I would be grateful if you could indicate the recorded call for `CSC(=O)c1c(C(F)F)nc(C(F)(F)F)c(C(=O)SC)c1CC(C)C` .
yes (1)

I would be grateful if you could indicate the recorded call for `CC1(C)CON(Cc2ccccc2Cl)C1=O` .
no (0)

I would be grateful if you could indicate the recorded call for CCOC(=O)C(C)OC(=O)c1cc(Oc2ccc(C(F)(F)F)cc2Cl)ccc1[N+](=O)[O-] (configuration not stated) .
no (0)

I would be grateful if you could indicate the recorded call for `OC(c1ccc(Cl)cc1)(c1ccc(Cl)cc1)C(Cl)(Cl)Cl` .
yes (1)

I would be grateful if you could indicate the recorded call for `CS(=O)(=O)c1ccc(C(=O)C2C(=O)CCCC2=O)c([N+](=O)[O-])c1` .
no (0)

I would be grateful if you could indicate the recorded call for `CC(C)N1C(=O)N(c2ccccc2)CSC1=NC(C)(C)C` .
yes (1)

I would be grateful if you could indicate the recorded call for `CCSC(=O)N1CCCCCC1` .
no (0)

I would be grateful if you could indicate the recorded call for `O=P(O)(O)CCCl` .
no (0)

I would be grateful if you could indicate the recorded call for `CC(C)Nc1nc(Cl)nc(NC(C)C)n1` .
no (0)

I would be grateful if you could indicate the recorded call for CCNP(=S)(OC)O/C(C)=C/C(=O)OC(C)C (configuration not stated) .
no (0)

I would be grateful if you could indicate the recorded call for `Nc1c(Cl)c(F)nc(OCC(=O)O)c1Cl` .
no (0)

I would be grateful if you could indicate the recorded call for `COC(=O)NC(=S)Nc1ccccc1NC(=S)NC(=O)OC` .
yes (1)

I would be grateful if you could indicate the recorded call for `O=c1n(Cl)c(=O)n(Cl)c(=O)n1Cl` .
no (0)

I would be grateful if you could indicate the recorded call for O=C1C2CC=CCC2C(=O)N1SC(Cl)(Cl)Cl (configuration not stated) .
yes (1)

I would be grateful if you could indicate the recorded call for CC(C)C1(C)N=C(c2ncccc2C(=O)O)NC1=O (configuration not stated) .
no (0)

I would be grateful if you could indicate the recorded call for `Cc1nc(N(C)C)nc(OC(=O)N(C)C)c1C` .
no (0)

I would be grateful if you could indicate the recorded call for `COc1ccc(-c2ccccc2)cc1NNC(=O)OC(C)C` .
no (0)

I would be grateful if you could indicate the recorded call for `CCCCOCN(C(=O)CCl)c1c(CC)cccc1CC` .
yes (1)

I would be grateful if you could indicate the recorded call for `CN=C=S` .
no (0)

I would be grateful if you could indicate the recorded call for `CCNC(=O)NC(=O)C(C#N)=NOC` .
no (0)

I would be grateful if you could indicate the recorded call for COCc1cnc(C2=NC(C)(C(C)C)C(=O)N2)c(C(=O)O)c1 (configuration not stated) .
no (0)

I would be grateful if you could indicate the recorded call for CCOc1cc(C(C)(C)C)ccc1C1COC(c2c(F)cccc2F)=N1 (configuration not stated) .
yes (1)

I would be grateful if you could indicate the recorded call for `CC(C)N1C(=O)c2ccccc2NS1(=O)=O` .
no (0)

I would be grateful if you could indicate the recorded call for `CO/N=C(/C1=NOCCO1)c1ccccc1Oc1ncnc(Oc2ccccc2Cl)c1F` .
yes (1)

I would be grateful if you could indicate the recorded call for `COc1cc(Cl)c(OC)cc1Cl` .
no (0)

I would be grateful if you could indicate the recorded call for `COC(=O)c1c(C(F)F)nc(C(F)(F)F)c(C2=NCCS2)c1CC(C)C` .
yes (1)

I would be grateful if you could indicate the recorded call for `CC(C)Oc1cccc(NC(=O)c2ccccc2C(F)(F)F)c1` .
no (0)

I would be grateful if you could indicate the recorded call for `CS(=O)(=O)c1cc(C(F)(F)F)ccc1C(=O)c1cnoc1C1CC1` .
no (0)
